Entry source: patent US11479533B2

Assay: Brain and plasma concentrations in mouse by HPLC/MS/MS
Type: in vivo
Conditions: 2.5 mg/kg IV, plasma, 2 hr, read-out: Mean Conc. at 2 hr, Plasma
quantity-name: concentration at 2 hr (ng/mL)
// return numeric value only (unit: ng/mL, not printed)

Q: Would you mind telling me what concentration at 2 hr value was observed for CNC(C(=O)Nc1ccc(-c2cn[nH]c2)cc1)c1cccc(OC)c1 (stereo not shown) [Example 2] ?
Result: 25.7

---

Molecular target: recombinant ROCK2 (amino acids 1-552) (Homo sapiens (Human), UniProt O75116)
Sequence (O75116 1-552): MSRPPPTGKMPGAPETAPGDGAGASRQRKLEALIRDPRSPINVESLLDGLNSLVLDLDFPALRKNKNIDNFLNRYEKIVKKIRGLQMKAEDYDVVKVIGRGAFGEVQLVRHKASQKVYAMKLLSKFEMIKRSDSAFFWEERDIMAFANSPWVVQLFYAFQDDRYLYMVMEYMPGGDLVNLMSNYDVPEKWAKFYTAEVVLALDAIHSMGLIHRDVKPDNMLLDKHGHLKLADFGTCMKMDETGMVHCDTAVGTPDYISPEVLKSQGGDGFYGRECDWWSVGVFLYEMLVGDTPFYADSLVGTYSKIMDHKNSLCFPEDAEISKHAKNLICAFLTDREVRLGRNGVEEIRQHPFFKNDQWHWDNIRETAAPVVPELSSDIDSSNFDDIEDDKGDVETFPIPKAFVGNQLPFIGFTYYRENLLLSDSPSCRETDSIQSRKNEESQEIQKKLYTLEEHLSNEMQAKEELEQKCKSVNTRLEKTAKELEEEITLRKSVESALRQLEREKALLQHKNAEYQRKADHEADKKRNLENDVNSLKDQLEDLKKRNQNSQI
Experiment: Z'-lyte kinase assay, ROCK2
quantity-name: IC50 (nM)
// return numeric value only (unit: nM, not printed)

molecule: CNC(=O)c1ccc(C(NC)C(=O)Nc2ccc(-c3cn[nH]c3)cc2)cc1 (centres unmarked) [Example 69]
quantity-name: IC50
value-measured: 400
//
molecule: COc1cccc([C@@H](NCCN(C)C)C(=O)Nc2ccc(-c3cn[nH]c3)cc2)c1 [Example 61]
quantity-name: IC50
value-measured: 2.9
//
molecule: COCC1(NC(C(=O)Nc2ccc(-c3cn[nH]c3)cc2)c2cccc(OC)c2)CC1 (centres unmarked) [Example 53]
quantity-name: IC50
value-measured: 31

Q: Would you mind telling me what IC50 value was observed for CCNC(C(=O)Nc1ccc(-c2cn[nH]c2)cc1)c1ccc(C)cc1 (centres unmarked) [Example 11] ?
Result: 4

Q: Would you mind telling me what IC50 value was observed for CN[C@@H](C(=O)Nc1ccc(-c2cn[nH]c2)cc1)c1ccc(Cl)cc1 [Example 65] ?
Result: 1.2

Q: Would you mind telling me what IC50 value was observed for COc1cccc(C(NCC(=O)N(C)C)C(=O)Nc2ccc(-c3cn[nH]c3)cc2)c1 (centres unmarked) [Example 39] ?
Result: 16

Q: Would you mind telling me what IC50 value was observed for COCCN[C@H](C(=O)Nc1ccc(-c2cn[nH]c2)cc1)c1cccc(OC)c1 [Example 59] ?
Result: 239

Q: Would you mind telling me what IC50 value was observed for CNC(C(=O)Nc1ccc(-c2cn[nH]c2)cc1)c1cccc(F)c1 (centres unmarked) [Example 18] ?
Result: 10
